- procedureSummary: yeast display, Sf9 membrane polyspecificity reagent, FACS + sequencing; frameworks hold sequencing errors
propertyMeasured: polyreactivity (PSR sort gate)

residueSequence	observed
QVQLVESGGGLVQAGGSLRLTCAASGRTFAWYAMGWYRQAPGKERDLVAAISSAGSTYYADSVKGRFTISRDNAKNTVYLQMNSLKPEDTAVYYCAASFGRYTSGTYYYWGQGTQVTVSS	high polyreactivity
QVQLVESGGGLVQAGGRLRLSCAASGLIFDYYAMGWYRQAPGKERELVAAISYSGGRTYYADSVKCRFTISRDNAKNTVYLQMNSLKPEDTAVYYCNKVVLQPVIVDHDYWGQGTQVTVSS	low polyreactivity
QVQLVESGGGLVQAGGSLRLSCAASGRTFAWYAMGWYRQAPGKERELVAAITTRGSGTYYADSVKGRFTISRDNAKNTVYIQMNSLKPEDTAVYYCAKDPITVTTVDERVYYWGQGTQVTVSS	low polyreactivity
QVQLVESGGGLVQAGGSLRLTCDASGYIFSKYAMGWYRQAPGKERELVAAISGSGGSTSYADSVKGRFTISRDNAKNTVYLQMYCLKPEDTAVYYCIARSRLQRGRMDYWGQGTQVTVSS	high polyreactivity
PVQLVESGGGLVQAGGSLRLSCAASGRTYYTNAIGWYRQAAGNVRELVAAITGDGTSTYYADSVKGRFTMSRDNATYTVFLQINSLKPEDTAVYYCAATGGDRYEAYSYWGQGTQVTVSS	low polyreactivity
QDQLVESGGGLVQAGGSLRLSCAASGFTFYAYSMGWYRQAPGKERELVAAITYIGSTYYADSVKGRFTISRDNAKNTVYLQMNSLKPEDTAVYYCAAVKVFLGLGYDYWGQGTQVTVSS	low polyreactivity
QVQLVESGGGLVQAGGSLRLSCAASGRNFDPYAMGWYRQAPGKERELVASISRGGSTYADSVKGRFTISRDNAKNTVYLQMNRLKPEVTAVYYCNTSLYTEGDAMDYWGQGTQVTVSS	low polyreactivity
QDQLVESGGGLVQAGGSLRLSCAASGFTFVYNAMGWYRQAPGKERELVAAITSGGNTYYADSVKGRFTISRDNAKNTVYLQMNSLKPEDTAVYYCAADRFTVRMDYWGQGTQVTLSS	high polyreactivity
QDQLVESGGGLVQAGGSLRLSCAASGRIFKVYAMGRYRQAPGKERELVAAITRNTGSTYYADSVKGRFTISRDNAKNTVYLQMNSLKPEDTSVFYCAVDVRSGRAYDYWGQGTQVTVSS	high polyreactivity
QVQLVESGGGLVQAGGSLRLSCAASGSTFHSYAMGRYRQAPGKEREFVAAITIRGGSTYYADSVKGRFTISRDNAKNTVYLQMNSLKPEDTAVYYCAALVWGSYARWRYYWGQGTQVTVSS	high polyreactivity
QVQLVESGGGLVQAGGSLRLSCAASGRTYVRNGMGWYRQAPGKERELVAAISRGGSTNYADSVKGRFTISRDNAKNTVYLEMNSLKPEDTAVYYCNARTAEYRPYYYRYNYWGQGTQVTLSS	high polyreactivity
